Listing of entries alongside the reported B-cell IC50, nM (proliferation to IL-4).
Target: T1, human IL-4 receptor alpha chain on cells (TF-1 cells, primary human T-cell blasts and B cells) (human, UniProt P24394 26-825)
T1 sequence (looked up): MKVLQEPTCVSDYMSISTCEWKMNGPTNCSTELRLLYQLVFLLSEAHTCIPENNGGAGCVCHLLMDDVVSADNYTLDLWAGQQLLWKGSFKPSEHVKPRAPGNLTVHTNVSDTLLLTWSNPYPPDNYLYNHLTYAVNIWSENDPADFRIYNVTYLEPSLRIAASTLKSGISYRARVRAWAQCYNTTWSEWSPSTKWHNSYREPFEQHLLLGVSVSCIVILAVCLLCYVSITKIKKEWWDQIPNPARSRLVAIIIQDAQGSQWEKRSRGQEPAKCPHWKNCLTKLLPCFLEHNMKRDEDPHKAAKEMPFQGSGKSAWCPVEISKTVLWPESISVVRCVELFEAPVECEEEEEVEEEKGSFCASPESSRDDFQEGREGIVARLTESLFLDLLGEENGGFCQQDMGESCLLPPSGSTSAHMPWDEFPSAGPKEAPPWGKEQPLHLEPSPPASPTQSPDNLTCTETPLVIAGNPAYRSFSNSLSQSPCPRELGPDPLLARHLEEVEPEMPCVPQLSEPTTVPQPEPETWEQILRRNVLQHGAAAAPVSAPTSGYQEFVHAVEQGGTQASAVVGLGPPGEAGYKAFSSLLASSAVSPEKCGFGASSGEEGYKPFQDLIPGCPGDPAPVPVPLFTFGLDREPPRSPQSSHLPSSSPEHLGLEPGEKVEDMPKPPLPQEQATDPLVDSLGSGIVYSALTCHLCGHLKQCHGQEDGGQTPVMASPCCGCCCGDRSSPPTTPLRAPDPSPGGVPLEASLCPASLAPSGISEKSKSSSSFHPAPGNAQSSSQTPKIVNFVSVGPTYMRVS
Assay: cell-based or functional assay

Binder | B-cell IC50, nM (proliferation to IL-4) [nM]
IL-4RA (IL-4 double mutein R121D/Y124D, unPEGylated) (ligand, also called BAY 16-9996; IL-4DM) MHKCDITLQEIIKTLNSLTEQKTLCTELTVTDIFAASKNTTEKETFCRAATVLRQFYSHHEKDTRCLGATAQQFHRHKQLIRFLKRLDRNLWGLAGLNSCPVKEANQSTLENFLERLKTIMDEKDSKCSS | 0.86
IL4-RE-N38C, PEGylated with linear 22 kD mPEG-maleimide (ligand, linear 22 kD methoxy-polyethylene glycol-maleimide on Cys 38 (numbered according to wild type IL-4), also called PEG-IL4RE) MHKCDITLQEIIKTLNSLTEQKTLCTELTVTDIFAASKCTTEKETFCRAATVLRQFYSHHEKDTRCLGATAQQFHRHKQLIRFLKRLDRNLWGLAGLNSCPVKEANQSTLENFLERLKTIMDEKDSKCSS | 3.33
IL4-RE-K37C, PEGylated with linear 22 kD mPEG-maleimide (ligand, linear 22 kD methoxy-polyethylene glycol-maleimide on Cys 37 (numbered according to wild type IL-4), also called PEG-IL4RE) MHKCDITLQEIIKTLNSLTEQKTLCTELTVTDIFAASCNTTEKETFCRAATVLRQFYSHHEKDTRCLGATAQQFHRHKQLIRFLKRLDRNLWGLAGLNSCPVKEANQSTLENFLERLKTIMDEKDSKCSS | 3.73
IL4-RE-A104C, PEGylated with linear 22 kD mPEG-maleimide (ligand, linear 22 kD methoxy-polyethylene glycol-maleimide on Cys 104 (numbered according to wild type IL-4), also called PEG-IL4RE) MHKCDITLQEIIKTLNSLTEQKTLCTELTVTDIFAASKNTTEKETFCRAATVLRQFYSHHEKDTRCLGATAQQFHRHKQLIRFLKRLDRNLWGLAGLNSCPVKECNQSTLENFLERLKTIMDEKDSKCSS | 3.29

The values you see were collected from patent US20090010874A1.
